Assay: protein stability index of a GFP-peptide fusion (yeast GPS) (PSI 1-4); higher = more stable; sorted into four equal gates, so the index is relative within each strain
Conditions: san1∆
param class (str): category from protein stability index; see ranges bin A: < 2; bin B: ≥ 2 and < 3; bin C: ≥ 3

# sequenceCode, className
records = [
    ("AHSLSPKDYIKKLLEVH [CDC53]", "bin B"),
    ("EPIRFLPNQFPLKIHRT [SWI1]", "bin A"),
    ("YHRLSNKDMIKNLVKVL [CSN12]", "bin A"),
    ("NAEKTGKRQVLLRPSSK [RPS22B]", "bin C"),
    ("QLGEWAGLGKIDREGNA [RPS12]", "bin C"),
    ("TTQRRYEKAQKDLENAQ [SMC1]", "bin C"),
    ("GISVPFHSTYLMNGVKP [FAS1]", "bin A"),
    ("RCWKANIPWDVPGMPAP [PRP8]", "bin A"),
    ("KMSVTCNAQPITRSVMR [BRR2]", "bin B"),
    ("PLHLIFAQPVADIENST [SSN2]", "bin B"),
    ("FTKYKPARSSSLRSNVV [YAR002W/NUP60]", "bin B"),
    ("VQISNIPDIGDLPDTEG [PRP8]", "bin C"),
    ("LRSTENGIVDQVLVTTN [RPB2]", "bin B"),
    ("KKSVNKLDKQINMADRS [POP6]", "bin B"),
    ("CVQLIKCLVEKSICFEN [SWI1]", "bin B"),
    ("FKKLNSKNMSKSPSLTA [YMR153W/NUP53]", "bin B"),
    ("ASYAKYLIDHIKVEGAV [RPL22A]", "bin B"),
    ("LPPPEDVAFLKTAYSIY [RPN1]", "bin B"),
    ("EDAKLKTDLELLVERLK [RPN1]", "bin A"),
    ("EKIKSKKINRRNETSVD [YCG1]", "bin C"),
    ("QVILPMSPNHGTFGGDG [FAS2]", "bin C"),
    ("DCENFFNYVQECPAIPI [YJL039C/NUP192]", "bin C"),
    ("VTQNVLGLEYIIRLLPI [SRB8]", "bin A"),
    ("EYKLRSLTLSFIRHVAK [ECM29]", "bin B"),
    ("NLNVYIQVFEKPFLKKT [CDC53]", "bin B"),
]

* * *

Test: protein stability index of a GFP-peptide fusion (yeast GPS) (PSI 1-4); higher = more stable; sorted into four equal gates, so the index is relative within each strain
Settings: ubr1∆
I would appreciate it if you labelled entries 1 when protein stability index is 3 or higher, otherwise 0.

# sequenceCode, className
measured = [
    ("LPFQRLVREIAQDFKTD [HHT1]", 0),
    ("KGDRALLVKLSKRLPLR [BRR2]", 0),
    ("TSNASMNTTLGSIGSRK [YAR002W/NUP60]", 1),
    ("VNIVEKDGAKFIEVRNF [RPL9A]", 0),
    ("ATGHRVLIFFQMTQIMD [SNF2]", 0),
    ("DYAQLDHLVSSIPMGGQ [ARP9]", 0),
    ("ESFKGLQPFWFRVNNAS [ECM29]", 0),
    ("KSQEQREHSLQLFRTNK [PRP28]", 0),
    ("QACGLVKNLSLMSCISV [RPB2]", 0),
    ("SIFAMGLCGAGTNNARL [RPN1]", 0),
    ("SLPFLLRHMPLASIPDI [SSN2]", 0),
    ("TYRYVSVSVLVDRLKIG [RPS25A]", 0),
    ("MSRDAPIKADKDYSQIL [RPN5]", 0),
    ("LCVLWDDLQSSVIPEVD [YCG1]", 0),
    ("IKNGRIYFTVPNEFEIQ [RGR1]", 0),
    ("LHQHVVLKCLKSLESQR [RPC34]", 0),
    ("EDFLHFIVAEYIQQKKV [SRB4]", 0),
    ("NAKRSHMMKRWGYQMVW [POP1]", 0),
    ("THPKDTFYITREKYNMK [ARP9]", 1),
    ("RLNYLYQISAYQTRARQ [RPR2]", 0),
    ("IMAKRPFDKKSNSALFR [FAS1]", 0),
    ("RYQIMLPEQLKSGKFCS [SNM1]", 0),
    ("ARQRGKLKKSEEKVLST [SRP68]", 1),
    ("GNGNVSESDIINNLPPE [YCG1]", 0),
    ("QEVTNEAPFLTSGTSSE [GAL11]", 1),
    ("PTLAGMAQRTLKNKYES [FAS2]", 0),
    ("ILINTARIHAQNYLKTY [PRE9]", 0),
    ("QEPSASQVKDSVTETES [SRP68]", 0),
    ("YIFFGPIYYQKLKHMVL [RET1]", 0),
    ("VGMRYFHKQQAHFWKPV [RPL28]", 0),
    ("NMTTIADRNDDDEGSFA [SRB6]", 1),
    ("HPKLIKNKSGKIFVETK [FAS1]", 0),
    ("DLSTLVHSSSPSTSSNM [GAL11]", 0),
    ("RLWLKKVMEEEEQDCKC [POP8]", 0),
    ("KEEFIMMVNISVLISIP [PCI8]", 0),
    ("PDRQSMDSRVAHGNILI [SRB5]", 1),
    ("LLLKLASPHASVRTAVF [ECM29]", 0),
    ("PLHLIFAQPVADIENST [SSN2]", 0),
    ("GKLGQIDYALTAVKQGV [PRE8]", 0),
    ("FKMNEIVPLHSPFLMGH [SEC65]", 0),
    ("LKNCKISNINIPISSET [SMC1]", 0),
    ("LTSTKVKQLENVSSNIV [RPS20]", 1),
    ("ISLSFSRPASYGYFSVG [SIR4]", 0),
    ("IIERYIKSKADAWVSAA [PRP8]", 0),
    ("NVKTSVSQLYRISEKSV [RPO31]", 1),
    ("KESDLLEETRTTIGDTT [BRN1]", 1),
    ("YLKVSEEEIKKFDSRIR [PRP8]", 1),
]

* * *

Experiment: protein stability index of a GFP-peptide fusion (yeast GPS) (PSI 1-4); higher = more stable; sorted into four equal gates, so the index is relative within each strain
Details: doa10∆

# sequenceCode, protein stability index
data = [
    ("PVGACATSVESVDIGVE [FAS2]", 2.92),
    ("MVPKRSTIITKAINQEL [YCS4]", 1.39),
    ("TSPGFGVSSPGFSPTSP [RPO21]", 2.7),
    ("TRSHFNALYDTLLESNL [RPN6]", 2.3),
    ("KKITLQLLDTSNQRFKD [SIN4]", 3.02),
    ("SNSAGTSLFGSSSAQQT [YJL041W/NSP1]", 3.15),
    ("SVRGAIVGPDLAVLALV [RPS6A]", 1.18),
    ("VQLRYGDYDSHDISRYV [PRP8]", 2.41),
    ("SNEIKVTNDLDTSAEKD [SIR4]", 3.29),
    ("SSGFNEDIVGALRRRVG [REC8]", 1.17),
    ("FIPNKQLNCVIDRVNGI [RPN7]", 2.47),
    ("RLQAKRLKDVEWVKLHR [RMP1]", 2.97),
    ("HAYRDVLAQYHEAKERI [SNF6]", 2.98),
    ("QLYFQKNGAQDLVLQIL [RRI2]", 2.6),
    ("SDNISRKYEISFGKIYV [RPB2]", 2.79),
    ("VDSLDPFSEGVTFSVMP [SMC4]", 2.92),
    ("LPLRLQFNEFIQIMANI [PGD1]", 1.52),
    ("RQINKLIDSLPGVDVSA [SRB7]", 2.43),
    ("QFKSKEVEKAHPIRLYT [PRP8]", 3.17),
    ("GDRQRLGEEHPLQVARC [RPT1]", 1.43),
    ("NLLVLRGKNEIIQNAQR [RPO21]", 1.56),
    ("TTQRRYEKAQKDLENAQ [SMC1]", 3.05),
    ("DDEEYDYNDVEVNSKKK [BRR2]", 3.3),
    ("TAMKKVEDGNILVFQVS [RPL25]", 2.53),
    ("LEDLKNTKEIAVDLEHH [RRP6]", 2.66),
    ("VKEEKEDMETQASDPSK [RPC53]", 3.27),
    ("GNGNVSESDIINNLPPE [YCG1]", 2.85),
    ("FKKLNSKNMSKSPSLTA [YMR153W/NUP53]", 2.21),
    ("LGHPDNYIPGNPLVTPA [COB]", 2.49),
    ("DDLERLKKIRAHRGIRH [RPS18A]", 1.47),
    ("NSIDINYKGLPKKYKEN [SMC1]", 2.91),
    ("SHSLALNEITNSKVNKL [DSN1]", 2.33),
    ("IYINKSVPTNSADAPNP [RET1]", 3.19),
    ("DSEKRNKYAAMLTSENA [RRP45]", 2.97),
    ("LVTAGVAAAGITASTLL [CYT1]", 1.57),
    ("FFKPLDYITEAVFKIVL [SNU114]", 2.06),
    ("MNRRKIAMPKRRMAFKP [YLR335W/NUP2]", 2.71),
    ("SIGSDILTAEKMRGNGN [RRP4]", 3.21),
    ("EIFDVTSNGLKKNPNWL [FAS1]", 3.54),
    ("PDRQSMDSRVAHGNILI [SRB5]", 3.14),
    ("ARQRGKLKKSEEKVLST [SRP68]", 3.28),
    ("LITKANKVSYYGNPTSK [RTT102]", 2.21),
    ("SPDQMRNLQMGLRNQNM [GRR1]", 3.23),
    ("AFNRFMAESLVDLEEVM [SSN8]", 1.57),
    ("KGEVYTIPLGGSVHKLP [PRE3]", 2.97),
    ("LHQRTHKQVYPLRMETI [DSN1]", 2.28),
    ("RVRNKDIRKFLDGIYVS [RPL9A]", 1.91),
    ("LSISVAAEPMDSKMIQD [SNU114]", 2.73),
    ("GKMVRAQDVALAKKWFL [PRP8]", 2.34),
    ("MPKKRASNGRNKKGRGH [RPS26A]", 3.3),
    ("VTEDGTVVTVVSTAKFS [RPL22A]", 2.52),
    ("KESDLLEETRTTIGDTT [BRN1]", 2.47),
    ("PEDALVNDFSDITSDQL [SMC3]", 3.32),
    ("KVTLNKETQQYELEFDT [BRR2]", 3.13),
    ("INSGTFVKVTKATLELL [RPL7A]", 3.01),
    ("KMELVYVSDSDDSSSDN [SIR4]", 2.7),
    ("ENYDDTELRQLFQENDD [DSN1]", 2.23),
    ("FHSEISPDSTVNRSVVV [YAR002W/NUP60]", 1.75),
    ("GPVVAGINSKSGKPFIA [PUP3]", 3.18),
    ("AILQKSLKNVTEKNREI [YIL149C/MLP2]", 3.01),
]
